Test system: MT4-LTR-EGFP-IIIB HIV-1 producing cells
method_summary: in vitro
Assay type: cell-based
assay_setup: summary of Table 1
quantity: Cytotoxicity on MT4-LTR-EGFP-IIIB cells, in words

NS(=O)(=O)c1ccc(NC(=O)CSc2nnc(Br)n2-c2ccc(C3CC3)c3ccccc23)c(Cl)c1 [VRX-480773] = submicromolar range
COP(=O)(c1cc(C)cc(/C=C/C#N)c1)c1c(C(N)=O)[nH]c2ccc(Cl)cc12 (centres unmarked) [IDX-12899] = submicromolar range
Cc1cc(S(N)(=O)=O)ccc1NC(=O)COc1ccc(Cl)cc1C(=O)c1cc(Cl)cc(C#N)c1 [GW-678248] = submicromolar range

---

method_summary: in vitro
Type: cell-based
assay_setup: human, CC50 on virus producing cells in the absence of DRV, one representative experiment (Fig. 3C), 4 days, 4 parameter fit
quantity: CC50 at 4 days (nM)
Value expressed in nM; do not type the unit.

Quick check: CC50 at 4 days of O=C1Nc2ccc(Cl)cc2[C@@](C#CC2CC2)(C(F)(F)F)O1 [EFV, efavirenz] ? 2440

---

method_summary: Cytotoxicity on uninfected control cells, EGFP fluorescence per well
Assay type: cell-based
assay_setup: human
quantity: CC50 at 4 days

Consider the compound shown here: "CCc1nn(CCO)c(CC)c1Oc1cc(C#N)cc(C#N)c1" What is its recorded CC50 at 4 days? > 10 µM

---

method_summary: in vitro
Type: cell-based
assay_setup: human, 4 days, no DRV; mean ± SD; tested up to 10 μM; read-out: Cytotoxicity on MT4-LTR-EGFP-IIIB HIV-1 producing cells CC50
Assign CC50 at 4 days to each entry below.
Give the quantity in µM, number only.

Need CC50 at 4 days of "Cc1cc(C)c(Nc2ccnc(Nc3ccc(C#N)cc3)n2)c(C)c1" , thanks. 2.56

Entry "O=C1Nc2ccc(Cl)cc2[C@@](C#CC2CC2)(C(F)(F)F)O1" has what CC50 at 4 days? 1.71

---

experimental_target: RT heterodimer (p66/p51) (Human immunodeficiency virus type 1 group M subtype B, UniProt P04585)
Construct: the bait protein (p66) was fused to the C-terminus of a chimeric receptor; expressed in transfected cells; host or cells: mammalian cells
method_summary: cell-based
Assay type: cell-based, HIV-1
assay_setup: concentration enhancing luciferase signal by 50% over control; read-out: Enhancement of RT-Dimerization EC50
quantity: EC50
Remember to quote the unit after the number.

Need EC50 of COP(=O)(c1cc(C)cc(/C=C/C#N)c1)c1c(C(N)=O)[nH]c2ccc(Cl)cc12 (stereo not drawn) , thanks. 4.6 nM

Give its EC50 value. Item: "NS(=O)(=O)c1ccc(NC(=O)CSc2nnc(Br)n2-c2ccc(C3CC3)c3ccccc23)c(Cl)c1" 4 nM

Dear colleague, I am looking for the recorded EC50 of the following compound: "Cc1cc(S(N)(=O)=O)ccc1NC(=O)COc1ccc(Cl)cc1C(=O)c1cc(Cl)cc(C#N)c1" 3.2 nM

---

System: MT4-CMV-EGFP control cells
method_summary: Cytotoxicity on uninfected control cells, EGFP fluorescence per well
Type: cell-based
Kindly supply the reported CC50 values for the records listed here.

Please state recorded CC50 (tested on MT4-CMV-EGFP control cells) of NS(=O)(=O)c1ccc(NC(=O)CSc2nnc(Br)n2-c2ccc(C3CC3)c3ccccc23)c(Cl)c1 [VRX-480773] 5.82 µM

GET /values?readout=CC50&system=MT4-CMV-EGFP control cells&item= Cc1cc(S(N)(=O)=O)ccc1NC(=O)COc1ccc(Cl)cc1C(=O)c1cc(Cl)cc(C#N)c1 [GW-678248] > 10 µM

Hi! What's the reported CC50 for COP(=O)(c1cc(C)cc(/C=C/C#N)c1)c1c(C(N)=O)[nH]c2ccc(Cl)cc12 (stereo not drawn) [IDX-12899] on MT4-CMV-EGFP control cells? > 10 µM
